- system name: T1, FZD5 cysteine-rich domain (CRD), MYC-tagged and GPI-anchored on CHO cells (human, UniProt Q13467 29-156, GPI anchor)
- T1 construct: also called FZD5 CRD; CHO-myc-FZDGPI; not shown: MYC tag and GPI anchor signal
- T1 sequence: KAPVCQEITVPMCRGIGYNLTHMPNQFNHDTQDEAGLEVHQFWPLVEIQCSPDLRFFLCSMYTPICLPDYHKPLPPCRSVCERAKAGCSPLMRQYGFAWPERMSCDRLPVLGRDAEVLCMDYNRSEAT
- protocol: flow cytometry, CHO-CRD cells;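 further: flow cytometry of Fab binding to CHO cells overexpressing a Frizzled CRD, with binding defined as median fluorescence over twice that of CHO cells lacking any Frizzled CRD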
Each entry below carries its recorded median fluorescence.
Give the value as a plain number.

Consider the reported median fluorescence for these binders:
1. Fab-2924 (Fab, V domains shown, Fab; also called Fv-2924) VH: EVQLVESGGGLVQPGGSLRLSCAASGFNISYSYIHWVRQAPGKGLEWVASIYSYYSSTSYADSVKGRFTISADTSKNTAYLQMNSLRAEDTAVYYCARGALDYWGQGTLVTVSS VL: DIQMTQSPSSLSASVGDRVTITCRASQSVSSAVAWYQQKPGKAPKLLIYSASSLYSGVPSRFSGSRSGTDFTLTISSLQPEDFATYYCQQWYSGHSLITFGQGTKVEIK	39.2
2. Fab-2926 (Fab, V domains shown, Fab; also called Fv-2926) VH: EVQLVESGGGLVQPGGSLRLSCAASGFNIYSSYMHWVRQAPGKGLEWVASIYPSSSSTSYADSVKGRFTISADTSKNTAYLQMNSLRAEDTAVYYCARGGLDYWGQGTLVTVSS VL: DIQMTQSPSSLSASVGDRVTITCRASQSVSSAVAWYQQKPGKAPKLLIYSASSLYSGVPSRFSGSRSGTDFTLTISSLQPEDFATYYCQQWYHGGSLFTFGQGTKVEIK	34.6

Turning now to a further binder:
Ask: Reported median fluorescence for Fab-2905 (Fab, V domains shown, Fab; also called Fv-2905) VH: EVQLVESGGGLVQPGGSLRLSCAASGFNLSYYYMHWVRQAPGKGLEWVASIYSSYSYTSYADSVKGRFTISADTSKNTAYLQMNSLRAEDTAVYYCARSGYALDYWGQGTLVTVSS VL: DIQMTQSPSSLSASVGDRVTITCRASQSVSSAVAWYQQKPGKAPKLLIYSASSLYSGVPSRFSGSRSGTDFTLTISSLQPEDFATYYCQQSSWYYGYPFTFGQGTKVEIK : what is it?
Result: 24.8

Every entry's value here was drawn from patent US20210253718A1.
